These measurements were taken from paper PMC8815882.

tested on: M. mycetomatis MM55; assay: IC50 determination, 2-fold dilution series 16 to 0.03125 μM; assay type: cell-based, Madurella mycetomatis; conditions: Madurella mycetomatis, MM55, Table 2; M. mycetomatis MM55; read-out: IC50
measured metric: IC50 (µM)

P: CNCC(=O)OCc1cccnc1N(C)C(=O)OC(C)[n+]1cnn(C[C@](O)(c2cc(F)ccc2F)[C@@H](C)c2nc(-c3ccc(C#N)cc3)cs2)c1 (stereo partly drawn) [MMV1634494, Isavuconazonium, reference compound]
Q: CCC(C)(C)c1ccc(CC(C)CN2C[C@@H](C)O[C@@H](C)C2)cc1 (stereo partly drawn) [MMV1634358, Amorolfine, reference compound]
R: CCN(CC)CCn1c(=N)n(CC(O)COc2ccc(Cl)cc2Cl)c2ccccc21 (stereo not drawn)
-- ask Order the entries by their reported IC50, beginning at the minimum. Answer format: the labels, ordered as requested.
-- reply P, Q, R
(P: 0.04 µM, Q: 5.72 µM, R: 8.21 µM)

---

system: M. mycetomatis genome strain MM55; assay: CLSI M38-A2 based in vitro susceptibility screening (XTT or resazurin), growth at fixed concentration; type: cell-based, Madurella mycetomatis; conditions: Madurella mycetomatis, 25 uM, replicate A, M. mycetomatis MM55; read-out: Percentage survival at 25um, 25 um A
Quick reference for activity at 25 µM among some molecules
# number only, unit % dropped from output

O=c1cc(Nc2ccc3ccccc3c2)[nH]c(=O)[nH]1    93.6
CCCCCOc1ccc(/C=C2\Oc3c(ccc(O)c3O)C2=O)c(O)c1    93.6
O=C(Nc1nnc(-c2ccccc2)o1)c1ccc(F)cc1    69.5
CCCCC(CC)CNC(=N)NC(=N)NCCCCCCNC(=N)NC(=N)NCC(CC)CCCC (stereo not drawn) [MMV396785, Alexidine, reference compound]    -0.617
CC(C)(C)c1ccc(OCCn2nc(C(=O)O)c3ccccc3c2=O)cc1    89.9

-- ask Quick check: activity at 25 µM of `C[C@H](c1cccc2ccccc12)N(C)Cc1ccccc1` ?
-- reply 78.4

-- ask Please give the measured activity at 25 µM for this molecule: `CN1CCN(c2ccc3[nH]c(-c4ccc5[nH]c(-c6ccc(O)cc6)nc5c4)nc3c2)CC1`
-- reply 67.7

-- ask May I ask what activity at 25 µM has been recorded for `CC1(C)[C@H](C(=O)O)N2C(=O)C[C@H]2S1(=O)=O` ?
-- reply 97.1

-- ask Which activity at 25 µM is listed for `O=C(/C(=C/c1ccc(Cl)cc1Cl)n1ccnc1)c1ccc(Cl)cc1` ?
-- reply -1.32

-- ask Consider the molecule shown here: `NC(=O)c1cnc2ccc(S(=O)(=O)c3ccccc3)cc2c1Nc1ccc(O)cc1` What is its recorded activity at 25 µM?
-- reply 86.9

-- ask What activity at 25 µM value was documented for this molecule, `NC(=O)[C@@H]1CC[C@@H]2CN1C(=O)N2OS(=O)(=O)O` ?
-- reply 94.4

-- ask Consider the molecule `COc1ccc(C)cc1NC(=O)c1ccc(S(=O)(=O)N2CCCCC2)cc1` and give its measured activity at 25 µM.
-- reply 96.4

---

test system: M. mycetomatis genome strain MM55; experiment: CLSI M38-A2 based in vitro susceptibility screening (XTT or resazurin), growth at fixed concentration; type: cell-based, Madurella mycetomatis; details: Madurella mycetomatis, 100 uM, replicate 1; read-out: Percentage survival at 100um, 100 uM A
Reported activity at 100 µM values follow for various compounds
The answer is to be given in %; state only the numeric part.

Below: 4 compounds and their reported activity at 100 µM.
CC(=O)Nc1cc(NS(=O)(=O)c2ccc(Cl)cc2)cc2c(Cl)n[nH]c12    78.5
Clc1cccc(-c2nnc(-c3ccccc3)o2)c1    58.8
Cc1c(CN(C)C(=O)/C=C/c2cnc3c(c2)C(C)(C)C(=O)N3)oc2ccccc12    57.9
CC[C@@H](CO)NCCN[C@@H](CC)CO    96.9

-- ask # get_value(readout='activity at 100 µM', item= `O=C(Cc1ccccc1F)Nc1nc2ccccc2[nH]1` )
-- reply 102

-- ask Form field: reported activity at 100 µM of `CO/N=C(\C(=O)N[C@@H]1C(=O)N2C(C(=O)OCOC(=O)C(C)(C)C)=C(/C=C\c3scnc3C)CS[C@H]12)c1csc(N)n1`
-- reply 72.7

-- ask Query (compound): `Oc1ccc2[nH]c(-c3ccccc3)nc2c1` ; field requested: activity at 100 µM
-- reply 100

-- ask Value lookup for activity at 100 µM; key = `CCc1oc2ccccc2c1C(=O)c1ccc(O)cc1`
-- reply -1.97

-- ask activity at 100 µM lookup needed for Nc1nc(NC2Cc3ccc(F)cc3C2)nc(N2CCCCC2)n1 (stereo not shown) , thanks.
-- reply -0.246

-- ask // activity at 100 µM lookup, key: `N#CCN1C(=O)COc2cc(F)c(N3C(=O)c4ccccc4C3=O)cc21`
-- reply 83.8

-- ask What does the record list as activity at 100 µM for `COc1ccc(SCC(=O)N2c3ccccc3Sc3ccccc32)cc1` ?
-- reply 43.6

-- ask Look up activity at 100 µM for this compound: `CN(C)[C@@H]1C(=O)C(C(N)=O)=C(O)[C@@]2(O)C(=O)C3=C(O)c4c(O)c(NC(=O)CN5CCCC5)cc(F)c4C[C@H]3C[C@@H]12`
-- reply 92.7
